Consider the following pIC50 values measured on Somatostatin receptor type 4 (Homo sapiens).
Where a SMILES comes first, the peptide text is derived from it. Bridges are numbered along the chain shown (N, C = ends). [ ]: non-standard residue; d: D form.
Give bare numbers, as −log10 of the molar value.

- Compound: "C[C@@H](O)[C@@H]1NC(=O)[C@H](CCCCN)NC(=O)[C@H](Cc2c[nH]c3ccccc23)NC(=O)[C@H](Cc2ccccc2)NC(=O)[C@H](Cc2ccccc2)NC(=O)[C@@H](N)CSSC[C@@H](C(=O)O)NC(=O)[C@H](Cc2ccccc2)NC1=O (H-CFFWKTFC-OH; disulfide 1-8)"
  Data value: 8.74

Task: Field request: pIC50 | item: C[C@@H](O)[C@@H]1NC(=O)[C@H](CCCCN)NC(=O)[C@@H](Cc2c[nH]c3ccccc23)NC(=O)[C@H](Cc2ccccc2)NC(=O)[C@H](Cc2ccccc2)NC(=O)[C@@H](N)CSSC[C@@H](C(=O)O)NC(=O)[C@H](Cc2ccccc2)NC1=O (H-CFF[dW]KTFC-OH; disulfide 1-8)
Output: 9.15

---

Molecular target: Somatostatin receptor type 4 (Homo sapiens, UniProt P31391)
Sequence (P31391 whole entry): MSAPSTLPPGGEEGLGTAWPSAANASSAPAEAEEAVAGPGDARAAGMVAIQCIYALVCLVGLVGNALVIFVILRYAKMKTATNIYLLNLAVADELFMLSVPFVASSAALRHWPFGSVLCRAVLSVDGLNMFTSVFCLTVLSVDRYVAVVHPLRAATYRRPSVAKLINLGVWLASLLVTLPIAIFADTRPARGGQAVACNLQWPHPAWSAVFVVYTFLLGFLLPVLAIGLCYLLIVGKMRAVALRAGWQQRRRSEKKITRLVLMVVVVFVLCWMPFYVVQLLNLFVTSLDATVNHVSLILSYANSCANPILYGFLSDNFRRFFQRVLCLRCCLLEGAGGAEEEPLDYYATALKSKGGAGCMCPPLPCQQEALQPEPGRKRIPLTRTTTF
For each of the compounds below, state its IC50.
Numbers only, in nM.

- Compound: "C[C@@H](O)[C@@H]1NC(=O)[C@H](CCCCN)NC(=O)[C@@H](Cc2c[nH]c3ccccc23)NC(=O)[C@H](N(C)C(=O)c2ccccc2)NC(=O)[C@H](Cc2ccccc2)NC(=O)[C@H](N)CSSC[C@@H](C(=O)O)NC(=O)[C@H](Cc2ccccc2)NC1=O (stereo in doubt; 10)"
  Measured endpoint: "IC50"
  Result unit: "nM"
  Data value: 3.4
- Compound: "CN(C(=O)CO)[C@H]1NC(=O)[C@H](CCCCN)NC(=O)[C@@H](Cc2c[nH]c3ccccc23)NC(=O)[C@H](Cc2ccccc2)NC(=O)[C@H](Cc2ccccc2)NC(=O)[C@@H](N)CSSC[C@@H](C(=O)O)NC(=O)[C@H](Cc2ccccc2)NC1=O (stereo in doubt; 20)"
  Measured endpoint: "IC50"
  Result unit: "nM"
  Data value: 6.5
- Compound: "C[C@@H](O)[C@@H]1NC(=O)[C@H](CCCCN)NC(=O)[C@@H](Cc2c[nH]c3ccccc23)NC(=O)[C@H](N(C)C(=O)c2ccccc2)NC(=O)[C@H](Cc2ccccc2)NC(=O)[C@H](N)CSSC[C@@H](C(=O)O)NC(=O)[C@H](Cc2ccccc2)NC1=O (stereo in doubt; 11)"
  Measured endpoint: "IC50"
  Result unit: "nM"
  Data value: 31

Task: I'd like to know its IC50. The compound in question is C[C@@H](O)[C@@H]1NC(=O)[C@H](CCCCN)NC(=O)[C@@H](Cc2c[nH]c3ccccc23)NC(=O)[C@H](Cc2ccccc2)NC(=O)[C@H](N(C)C(=O)c2ccccc2)NC(=O)[C@@H](N)CSSC[C@@H](C(=O)O)NC(=O)[C@H](Cc2ccccc2)NC1=O (stereo in doubt; 4)
Output: 14

---

// Somatostatin receptor type 1 (Homo sapiens, UniProt P30872) IC50 records
Where a SMILES comes first, the peptide text is derived from it. Bridges are numbered along the chain shown (N, C = ends). [ ]: non-standard residue; d: D form.
One number for each entry, in µM.

- Compound: "C[C@@H](O)[C@@H]1NC(=O)[C@H](CCCCN)NC(=O)[C@H](Cc2c[nH]c3ccccc23)NC(=O)[C@H](Cc2ccccc2)NC(=O)[C@H](Cc2ccccc2)NC(=O)[C@@H](N)CSSC[C@@H](C(=O)O)NC(=O)[C@H](Cc2ccccc2)NC1=O (H-CFFWKTFC-OH; disulfide 1-8)"
  Result unit: "µM"
  IC50: 0.027
- Compound: "CN(C(=O)CO)[C@H]1NC(=O)[C@H](CCCCN)NC(=O)[C@@H](Cc2c[nH]c3ccccc23)NC(=O)[C@H](Cc2ccccc2)NC(=O)[C@H](Cc2ccccc2)NC(=O)[C@@H](N)CSSC[C@@H](C(=O)O)NC(=O)[C@H](Cc2ccccc2)NC1=O (stereo in doubt; 20)"
  Result unit: "µM"
  IC50: 0.045
- Compound: "C[C@@H](O)[C@@H]1NC(=O)[C@H](CCCCN)NC(=O)[C@@H](Cc2c[nH]c3ccccc23)NC(=O)[C@H](Cc2ccccc2)NC(=O)[C@H](N(C)C(=O)c2ccccc2)NC(=O)[C@@H](N)CSSC[C@@H](C(=O)O)NC(=O)[C@H](Cc2ccccc2)NC1=O (stereo in doubt; 4)"
  Result unit: "µM"
  IC50: 0.667

Here is another compound to look at.
Task: May I ask what IC50 has been recorded for C[C@@H](O)[C@@H]1NC(=O)[C@H](CCCCN)NC(=O)[C@@H](Cc2c[nH]c3ccccc23)NC(=O)[C@H](Cc2ccccc2)NC(=O)[C@H](Cc2ccccc2)NC(=O)[C@@H](N)CSSC[C@@H](C(=O)O)NC(=O)[C@H](Cc2ccccc2)NC1=O (H-CFF[dW]KTFC-OH; disulfide 1-8) ?
Output: 0.0053

---

Measurement record for Somatostatin receptor type 3 (Homo sapiens); quantity recorded: pIC50.
Numbers only, as −log10 of the molar value.

- Molecule: "C[C@@H](O)[C@@H]1NC(=O)[C@H](CCCCN)NC(=O)[C@@H](Cc2c[nH]c3ccccc23)NC(=O)[C@H](N(C)C(=O)c2ccccc2)NC(=O)[C@H](Cc2ccccc2)NC(=O)[C@H](N)CSSC[C@@H](C(=O)O)NC(=O)[C@H](Cc2ccccc2)NC1=O (stereo in doubt; 7)"
  Measured endpoint: "pIC50"
  Data value: 6.14

# ---- query molecule ----
Task: Give Somatostatin receptor type 3 (Homo sapiens) pIC50 for `C[C@@H](O)[C@@H]1NC(=O)[C@H](CCCCN)NC(=O)[C@H](Cc2c[nH]c3ccccc23)NC(=O)[C@H](N(C)C(=O)c2ccccc2)NC(=O)[C@H](Cc2ccccc2)NC(=O)[C@@H](N)CSSC[C@@H](C(=O)O)NC(=O)[C@H](Cc2ccccc2)NC1=O`
Output: 6.39

---

Record form. Attribute: pIC50. Fill in for each entry.
Target: Somatostatin receptor type 2 (Homo sapiens, UniProt P30874)
Sequence (P30874 whole entry): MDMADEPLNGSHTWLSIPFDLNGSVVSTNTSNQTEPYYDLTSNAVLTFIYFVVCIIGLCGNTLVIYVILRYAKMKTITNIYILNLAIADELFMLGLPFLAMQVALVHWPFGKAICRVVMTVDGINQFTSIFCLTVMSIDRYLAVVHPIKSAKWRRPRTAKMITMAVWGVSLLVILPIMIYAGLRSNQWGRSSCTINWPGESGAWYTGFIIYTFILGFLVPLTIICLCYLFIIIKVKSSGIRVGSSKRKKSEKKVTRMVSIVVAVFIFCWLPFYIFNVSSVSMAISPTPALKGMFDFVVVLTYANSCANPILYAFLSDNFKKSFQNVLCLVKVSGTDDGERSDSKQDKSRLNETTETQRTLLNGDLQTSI
pIC50: −log10 of the molar value.

- Molecule: "C[C@@H](O)[C@@H]1NC(=O)[C@H](CCCCN)NC(=O)[C@@H](Cc2c[nH]c3ccccc23)NC(=O)[C@H](N(C)C(=O)c2ccccc2)NC(=O)[C@H](Cc2ccccc2)NC(=O)[C@H](N)CSSC[C@@H](C(=O)O)NC(=O)[C@H](Cc2ccccc2)NC1=O (stereo in doubt; 7)"
  Test target: "Somatostatin receptor type 2 (Homo sapiens, UniProt P30874)"
  pIC50: "< 6.00"
- Molecule: "C[C@@H](O)[C@@H]1NC(=O)[C@@H](NC(=O)CCN)NC(=O)[C@@H](Cc2c[nH]c3ccccc23)NC(=O)[C@H](Cc2ccccc2)NC(=O)[C@H](Cc2ccccc2)NC(=O)[C@@H](N)CSSC[C@@H](C(=O)O)NC(=O)[C@H](Cc2ccccc2)NC1=O (stereo in doubt; 16)"
  Test target: "Somatostatin receptor type 2 (Homo sapiens, UniProt P30874)"
  pIC50: "< 6.00"
- Molecule: "C[C@@H](O)[C@@H]1NC(=O)[C@H](CCCCN)NC(=O)[C@H](Cc2c[nH]c3ccccc23)NC(=O)[C@H](N(C)C(=O)c2ccccc2)NC(=O)[C@H](Cc2ccccc2)NC(=O)[C@@H](N)CSSC[C@@H](C(=O)O)NC(=O)[C@H](Cc2ccccc2)NC1=O"
  Test target: "Somatostatin receptor type 2 (Homo sapiens, UniProt P30874)"
  pIC50: "< 6.00"

Read the next record carefully.
Task: Given `C[C@@H](O)[C@@H]1NC(=O)[C@@H](N(C)C(=O)CCN)NC(=O)[C@@H](Cc2c[nH]c3ccccc23)NC(=O)[C@H](Cc2ccccc2)NC(=O)[C@H](Cc2ccccc2)NC(=O)[C@@H](N)CSSC[C@@H](C(=O)O)NC(=O)[C@H](Cc2ccccc2)NC1=O` , state its recorded pIC50.
Output: < 5.00

---

Target: Somatostatin receptor type 1 (Homo sapiens)
Sequence (P30872 whole entry): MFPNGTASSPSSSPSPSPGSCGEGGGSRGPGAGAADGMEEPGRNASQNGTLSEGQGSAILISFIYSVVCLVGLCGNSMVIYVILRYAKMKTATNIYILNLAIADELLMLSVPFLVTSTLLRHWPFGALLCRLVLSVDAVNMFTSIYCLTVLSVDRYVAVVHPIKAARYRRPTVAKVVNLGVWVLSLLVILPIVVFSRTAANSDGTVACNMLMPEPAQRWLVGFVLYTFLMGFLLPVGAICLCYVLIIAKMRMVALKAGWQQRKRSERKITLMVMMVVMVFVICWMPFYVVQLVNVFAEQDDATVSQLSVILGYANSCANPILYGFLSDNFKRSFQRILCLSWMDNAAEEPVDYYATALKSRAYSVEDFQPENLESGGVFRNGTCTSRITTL
pIC50: −log10 of the molar value.
Measured endpoint: pIC50

Examples with answers:
- Compound: "C[C@@H](O)[C@@H]1NC(=O)[C@H](CCCCN)NC(=O)[C@@H](Cc2c[nH]c3ccccc23)NC(=O)[C@H](Cc2ccccc2)NC(=O)[C@H](N(C)C(=O)c2ccccc2)NC(=O)[C@@H](N)CSSC[C@@H](C(=O)O)NC(=O)[C@H](Cc2ccccc2)NC1=O (stereo in doubt; 5)"
  Data value: "< 5.00"
- Compound: "C[C@@H](O)[C@@H]1NC(=O)[C@H](CCCCN)NC(=O)[C@@H](Cc2c[nH]c3ccccc23)NC(=O)[C@H](Cc2ccccc2)NC(=O)[C@H](Cc2ccccc2)NC(=O)[C@@H](N)CSSC[C@@H](C(=O)O)NC(=O)[C@H](N(C)C(=O)c2ccccc2)NC1=O"
  Data value: "< 5.00"

Please examine the following record next.
Task: Could you tell me which pIC50 is on file for C[C@@H](O)[C@@H]1NC(=O)[C@H](CCCCN)NC(=O)[C@@H](Cc2c[nH]c3ccccc23)NC(=O)[C@H](N(C)C(=O)c2ccccc2)NC(=O)[C@H](Cc2ccccc2)NC(=O)[C@H](N)CSSC[C@@H](C(=O)O)NC(=O)[C@H](Cc2ccccc2)NC1=O (stereo in doubt; 7) ?
Output: < 5.00
